Molecular target: CCR2 (Homo sapiens, UniProt P41597)
Construct: THP-1 human monocytic leukemic cell line, which expresses endogenous CCR2; endogenous in cells
Assay: CCR2 binding (125I-human MCP-1 competition on human PBMC / THP-1 cells)
Conditions: n = 1 unless otherwise noted; tested in one of the assays described
pKi: −log10 of the molar value.
recorded-endpoint: pKi

Worked set:
Query block: Quick one: pKi of O=C(O)C1=Cc2ccc(Br)cc2OC1c1ccc(Cl)c(Cl)c1 (racemic) ?
Result block: 6.14

Query block: Quick one: pKi of COc1ccc2c(c1)C=C(C(=O)O)C(c1ccc(Cl)c(Cl)c1)O2 (racemic) ?
Result block: 6.44

Query block: Quick one: pKi of O=C(O)C1=Cc2ccccc2OC1c1ccc(C(F)(F)F)c(Cl)c1 (racemic) ?
Result block: 6.41

Query block: Quick one: pKi of O=C(O)C1=Cc2ccc(F)cc2OC1c1ccc(Cl)c(Cl)c1 (racemic) ?
Result block: 6.46

I. O=C(O)C1=Cc2ccccc2OC1c1ccc(Cl)c([N+](=O)[O-])c1 (racemic)
II. O=C(O)C1=Cc2ccccc2OC1c1ccc(Cl)c(Cl)c1 (racemic) [Example 5-1]
III. O=C(O)C1=Cc2ccccc2OC1c1cnc(Cl)c(Cl)c1 (racemic)
IV. O=C(O)C1=Cc2ccccc2OC1c1cccc2ccccc12 (racemic)
Query block: Let's sort these by pKi, smallest first. Go ahead? Lab note: final answer is the ordered label list.
Result block: IV, III, I, II
(IV: 5.77, III: 6.24, I: 6.64, II: 6.85)

---

Molecular target: CCR2 (Homo sapiens, UniProt P41597)
Construct: THP-1 human monocytic leukemic cell line, which expresses endogenous CCR2; endogenous in cells
Sequence (P41597 1-360 isoform P41597-2): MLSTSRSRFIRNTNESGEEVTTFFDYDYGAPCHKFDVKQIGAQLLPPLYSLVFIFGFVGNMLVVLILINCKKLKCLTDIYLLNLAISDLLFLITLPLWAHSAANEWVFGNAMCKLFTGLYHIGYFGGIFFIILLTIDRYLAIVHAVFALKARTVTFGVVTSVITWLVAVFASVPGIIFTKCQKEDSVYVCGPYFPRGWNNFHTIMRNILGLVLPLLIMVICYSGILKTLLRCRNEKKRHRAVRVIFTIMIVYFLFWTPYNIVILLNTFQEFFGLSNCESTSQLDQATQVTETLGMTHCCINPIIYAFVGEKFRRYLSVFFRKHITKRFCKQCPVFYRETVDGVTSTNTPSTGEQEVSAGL
Test: CCR2 binding (125I-human MCP-1 competition on human PBMC / THP-1 cells)
Settings: n = 1 unless otherwise noted; tested in one of the assays described
recorded-endpoint: Ki (nM)

Worked set:
Query block: Quick one: Ki of COc1ccc2c(c1)OC(c1ccc(Cl)c(Cl)c1)C(C(=O)O)=C2 (racemic) [Example 9-6] ?
Result block: 300

Query block: Quick one: Ki of O=C(O)C1=Cc2ccccc2OC1c1cccc(Cl)c1Cl (racemic) [Example 5-26] ?
Result block: 2600

Query block: Quick one: Ki of O=C(O)C1=Cc2cc(F)ccc2OC1c1ccc(Cl)c(Cl)c1 (racemic) [Example 9-4] ?
Result block: 340

a. O=C(O)C1=Cc2ccccc2OC1c1ccc(Cl)c(F)c1 (racemic) [Example 5-7]
b. O=C(O)C1=Cc2ccccc2OC1c1ccc(Cl)c(Br)c1 (racemic) [Example 7-4]
c. O=C(O)C1=Cc2ccccc2OC1c1ccc(Cl)c(C(F)(F)F)c1 (racemic) [Example 2-1]
d. O=C(O)C1=Cc2ccccc2OC1c1cccc(C(F)(F)F)n1 (racemic) [Example 5-25]
e. O=C(O)C1=Cc2ccccc2OC1c1ccc2c(c1)OCO2 (racemic) [Example 3]
Query block: Reorder: Ki, max to min. Lab note: final answer is the ordered label list.
Result block: d, e, a, b, c

Just for reference, patent US8759390B2 is where these values come from.
